Ref: the supplement of paper PMC4840960

system: E18 rat cortical neuron-glia co-culture; assay: fiber score / MBP score (myelination specific beyond OL differentiation) (ratio); higher = more myelination-specific MBP alignment; details: 1 µM; treatment time: 8 days (DIV5-DIV13);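 also: MBP fiber length per Olig2+ nucleus over MBP area × intensity per Olig2+ nucleus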
Categorized via fiber score / MBP score: low (below 0.7), mid (0.7 to below 0.9), high (0.9 or more)

- molecule: "OCCN1CCN(CCCN2c3ccccc3Sc3ccc(Cl)cc32)CC1 [Perphenazine]"
  assayed.system: "E18 rat cortical neuron-glia co-culture"
  answer.label: "low"
- molecule: "C[C@@H]1C[C@H]2[C@@H]3CCC4=CC(=O)C=C[C@]4(C)[C@@]3(F)[C@@H](O)C[C@]2(C)[C@@]1(O)C(=O)CO [Dexamethazone]"
  assayed.system: "E18 rat cortical neuron-glia co-culture"
  answer.label: "mid"
- molecule: "CC(C)(C)C(O)/C=C/c1ccc2c(c1)OCO2 (stereo not given) [Stiripentol]"
  assayed.system: "E18 rat cortical neuron-glia co-culture"
  answer.label: "mid"

Prompt: For `Cc1c(C(=O)NN2CCCCC2)nn(-c2ccc(Cl)cc2Cl)c1-c1ccc(I)cc1` , which fiber score / MBP score bin applies?
Completion: high

Prompt: For CNCCCCOc1ccccc1Cc1ccccc1 [Bifemelane] , which fiber score / MBP score bin applies?
Completion: low

Prompt: For COc1cc(C(=O)NS(=O)(=O)c2ccccc2C)ccc1Cc1cn(C)c2ccc(NC(=O)OC3CCCC3)cc12 [Zafirlukast] , which fiber score / MBP score bin applies?
Completion: low

Prompt: For CC[C@H]1OC(=O)[C@H](C)[C@@H](O[C@H]2C[C@@](C)(OC)[C@@H](O)[C@H](C)O2)[C@H](C)[C@@H](O[C@@H]2O[C@H](C)C[C@H](N(C)C)[C@H]2O)[C@](C)(O)C[C@@H](C)C(=O)[C@H](C)[C@@H](O)[C@]1(C)O [Erythromycin] , which fiber score / MBP score bin applies?
Completion: mid

Prompt: For Cn1c(NCCN(CCO)CCCc2ccc([N+](=O)[O-])cc2)cc(=O)n(C)c1=O [Nifekalant] , which fiber score / MBP score bin applies?
Completion: low

Prompt: For CCC1(c2ccccc2)C(=O)NCNC1=O [Primidone] , which fiber score / MBP score bin applies?
Completion: high

Prompt: For Cc1nnc(SCC2=C(C(=O)O)N3C(=O)[C@@H](NC(=O)Cn4cnnn4)[C@H]3SC2)s1 [Cefazolin] , which fiber score / MBP score bin applies?
Completion: mid

----------
tested on: E18 rat cortical neuron-glia co-culture; test: fiber score / MBP score (myelination specific beyond OL differentiation) (ratio); higher = more myelination-specific MBP alignment; settings: 1 µM; treatment time: 8 days (DIV5-DIV13);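 also: MBP fiber length per Olig2+ nucleus over MBP area × intensity per Olig2+ nucleus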
Structures can show the parent of a compound that is named as a salt.
Here the recorded fiber score / MBP score is given for each entry.
Answer field: number only, no words.

Worked cases, fiber score / MBP score given:
- compound: "CCOC(=O)CCC(=O)O[C@H]1[C@H](O[C@@H]2[C@@H](C)[C@H](O[C@H]3C[C@@](C)(OC)[C@@H](O)[C@H](C)O3)[C@@H](C)C(=O)O[C@H](CC)[C@@](C)(O)[C@H](O)[C@@H](C)C(=O)[C@H](C)C[C@@]2(C)O)O[C@H](C)C[C@@H]1N(C)C [Erythromycin Ethylsuccinate]"
  reading: 0.639
- compound: "CN(C)CCOc1ccc(/C(=C(/CCCl)c2ccccc2)c2ccccc2)cc1"
  reading: 0.889
- compound: "O=C(NCCN1CCOCC1)c1ccc(Cl)cc1 [Moclobemide]"
  reading: 0.601
- compound: "CCn1cc(C(=O)O)c(=O)c2cc(F)c(N3CCNCC3)cc21"
  reading: 0.701
- compound: "CC1(C)O[C@@H]2C[C@H]3[C@@H]4C[C@H](F)C5=CC(=O)C=C[C@]5(C)[C@@]4(F)[C@@H](O)C[C@]3(C)[C@]2(C(=O)CO)O1 [Fluocinolone Acetonide]"
  reading: 1.4
- compound: "Cc1ccc(NC(=O)c2ccc(CN3CCN(C)CC3)cc2)cc1Nc1nccc(-c2cccnc2)n1 [Imatinib mesylate]"
  reading: 0.424
- compound: "Nc1c2c(nc3ccccc13)CCCC2"
  reading: 0.655
- compound: "Nc1nc(=O)[nH]cc1F"
  reading: 0.88

Prompt: Please give the measured fiber score / MBP score for this compound: `C[C@H](CS)C(=O)N1CCC[C@H]1C(=O)O`
Completion: 0.773

Prompt: Please give the measured fiber score / MBP score for this compound: `C=CC1=C(C(=O)O)N2C(=O)[C@@H](NC(=O)/C(=N\OCC(=O)O)c3csc(N)n3)[C@H]2SC1`
Completion: 0.945

Prompt: Please give the measured fiber score / MBP score for this compound: `Oc1ncnc2[nH]ncc12`
Completion: 1.01
